tgt: estrogen receptors (Rattus norvegicus, UniProt P06211)
Sequence (P06211 1-600): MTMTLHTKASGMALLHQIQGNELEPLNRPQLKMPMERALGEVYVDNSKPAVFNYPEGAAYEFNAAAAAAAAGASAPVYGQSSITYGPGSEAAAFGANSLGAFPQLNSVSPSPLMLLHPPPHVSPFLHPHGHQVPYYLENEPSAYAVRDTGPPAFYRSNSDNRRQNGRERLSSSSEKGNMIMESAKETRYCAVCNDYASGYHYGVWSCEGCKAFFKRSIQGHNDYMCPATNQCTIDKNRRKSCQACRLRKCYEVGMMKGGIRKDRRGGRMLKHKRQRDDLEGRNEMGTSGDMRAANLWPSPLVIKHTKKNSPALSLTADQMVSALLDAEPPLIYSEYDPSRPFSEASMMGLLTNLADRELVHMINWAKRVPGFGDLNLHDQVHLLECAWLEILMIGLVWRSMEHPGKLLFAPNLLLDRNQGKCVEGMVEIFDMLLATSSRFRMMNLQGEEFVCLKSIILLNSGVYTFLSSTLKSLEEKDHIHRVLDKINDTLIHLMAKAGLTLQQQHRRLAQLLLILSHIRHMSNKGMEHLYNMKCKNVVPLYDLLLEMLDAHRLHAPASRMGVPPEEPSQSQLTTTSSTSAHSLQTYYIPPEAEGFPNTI
Structures can show the parent of a compound that is named as a salt.
quantity.measured: IC50

- CCC(=C(c1ccc(OC)cc1)c1ccc(OCCN(C)C)cc1)C1CCCC1 [Compound 11]: 10 to 100 µM
- CCC(c1ccc(O)cc1)C(CC)C1CCCC1 (stereo not drawn) [Compound 9, 3-cyclopentyl-4-(p-hydroxyphenyl)-hexane]: 0.1 to 1 µM
- CC/C(=C(\c1ccccc1)c1ccc(OCCN(CC)CC)cc1)C1CCCC1 [Compound 8]: 0.1 to 1 µM
- CC/C(=C(\c1ccccc1)c1ccc(OCCNC)cc1)C1CCCC1 [Compound 10, hydrochloride]: 10 to 100 µM
- CC/C(=C(\c1ccccc1)c1ccc(OCCN(C)C)cc1)C1CCCC1 [Compound 2, hydrochloride]: 0.1 to 10 µM
- CCC(CO)C(CC)c1ccc(O)cc1 (stereo not drawn) [Compound 12, 2-ethyl-3-(p-hydroxyphenyl)-1-pentanol]: 10 to 100 µM
